- Method Summary: yeast display, Sf9 membrane polyspecificity reagent, FACS + sequencing; frameworks hold sequencing errors
Property Measured: polyreactivity (PSR sort gate)

[[record]]
monomer_sequence = "QVQLVESGGGLVQAGGSLRLSCAASGFIFSYYAMGWYRQAPGKERELVAVISWSGGSTYYADSVKGRFTISRDNAKNTVYLQMNSLKPEDTAVYYCNAGYTYNRVIWPYYYWGQGTQVTVSS"
result = "high polyreactivity"

[[record]]
monomer_sequence = "QVQLVESGGGLVQAGGSLRLSCAASGSILYVNAMGWYRQATGKERELVAAITRTGGSTYYADSVKGRFTISRDNAKNTVYLQMNSLKPEDTAVYYCNAASSLPGYDYWGQGTQVTVSS"
result = "high polyreactivity"

[[record]]
monomer_sequence = "QVQLVESGGGLVQAGGSLRLSCAASGFTLYAYVMGWYRQAPGKERDLVAAISRSGGSTYYADSVKGRFTISRDNAKNTVYLQMNSLKPEDTAVYYCAAQYKRYHRLYGYWGQGTQVTVSS"
result = "high polyreactivity"

[[record]]
monomer_sequence = "QVQLVESGGGLVQAGGSLRLSCAASGSIFVSYAMGWYRQAPGKERELVAAITSIGTRTNYADSVKGRFTISRDNAKNTVYLPMNSLKPEDTAVYYCNAPRFWSRHGLRDYWGQGTQVTVSS"
result = "high polyreactivity"

[[record]]
monomer_sequence = "QVQLVESGGGLVQAGGSLRLSCAASGRIFYNYAMGWYRQAPGKERELVAAISGSGGSTYYADSVKGRFTISRDNAKNTVYLQMNSLKPEDTAVYYCNARDVVYLITPYFLVYVNLDYWGQGTQVTVSS"
result = "low polyreactivity"

[[record]]
monomer_sequence = "QVQLVESGGGLVQAGGSLSLSCAASGSILYINDMGWYRQAPGKERELVAAISWSGDSTIYADSVKGRFTISRDNAKNTVYLQMNSLKPEDTAVYYCNAVWYGGDMDYWGQGTQVTVSS"
result = "low polyreactivity"

[[record]]
monomer_sequence = "QVQLVESGGGLVQAGGSLRLSCAASGSIFYHYAMGWYRQAPGKERELVAAITITGGSTYYADSVKGRFTISRDNAKNTVYLQMNSLKPEDTAVYYCARKWYVHYNYWGQGTQVTVSS"
result = "high polyreactivity"

[[record]]
monomer_sequence = "QVQLVESGGGLVQAGGSLRLSCAASGFTFPWYAMGSSRQAPGKERELVASISYRGDSTYYADSVKGRFTISRDNAKKTVNLQMNSLKPEDTAVYYCNKRLASYYLPGFDYWGQGTQVTVSS"
result = "low polyreactivity"

[[record]]
monomer_sequence = "QVQLVESGGGLVQAGGSLRLSCAASGSIFKYNAMGWYRQAPGKERELVAAITNGGSTYADSVKGRFTISRDNAKNTVYLQMNSLKPEDTAVYYCNFYGQDGVNVTYDYWGQGTQVTVSS"
result = "low polyreactivity"

[[record]]
monomer_sequence = "QVHLVESGGGLVQAGGRLRLSCAASGFTFYKYAMGWYRQAPGKERELVAAITWSGGRTYYADSVKGRFTISRDNAKNTVYLQMNSLKPEDTAVYYCAADLHKLARYDYWGQGTQVTVSS"
result = "high polyreactivity"

[[record]]
monomer_sequence = "QVQLVESGGGLVQAGGSLRLSFAASGSILYIYAMGWYRQAPGKERELVASISRSGGRTYDADSVNGRFTISRDNAKNTVYLQMNSLKPEDTAVYYCDAVTGGGSKMDYWGQGTQVTVSS"
result = "high polyreactivity"

[[record]]
monomer_sequence = "QVQLVESGGGLVQAGGSLRLSSAASGRTFAWNAMGWYRQAPGKERELVAAISYNGGRTYYADSVKGRFTISRDNAKNTVYLQMNSLKPEDTAVYYCAAQRYGYWGQGTQVTVSS"
result = "high polyreactivity"

[[record]]
monomer_sequence = "QVQLVESGGGLVQAGGSLRLSCAASGSTFPVYAMGWYRQAPGKERELVASISSGGSTYYADSVKGRFTISRDNAKNTVYLQMNSLKPEDTAVYYCAKDPWVESFVIYDYWGQGTQVTVSS"
result = "low polyreactivity"

[[record]]
monomer_sequence = "QVQLVESGGRLVQAGGSLRLSCAASGRIFANYAMGWYRQAPGKERELVAAISRSGGSTSYADSVKGRFTISRDNAKNTVYLQMNSLKTEDTAVYYCAATRSRYQPVKYGYWGQGTQVTVTS"
result = "high polyreactivity"

[[record]]
monomer_sequence = "QVQLVESGGGLVQAGGSLRLSCAASGSTFLGNAMGWYRQAPGKERELVAGITSGGTTNFADSVKGRFTISRDNAKNTVYLQMNSLKPEDTAVYYCNADVWIGQRLDPGYDFDYWGQGTQVTVSS"
result = "low polyreactivity"

[[record]]
monomer_sequence = "QVQLVESGGGLVQAGGSLRLSCAASGRTFGWNVMGWYRQAPGKERELVAAISGSGGSTYYADSVKGRFTISRDNAKNTVYLQMNSLKPEDTAVYYCAALYGPGREYDYWGQGTQVTVSS"
result = "low polyreactivity"

[[record]]
monomer_sequence = "QVQLVESGGCLVQAGGSLRLSCAASGFTFRYYAMGWYRQAPGKEREFVAAIRSSGTTTSYADSVKGRFRISRDYAKNTVYLQMNSLKPEDTAVYFCAAGYFGPQQYYYWCQGTQVTVSS"
result = "high polyreactivity"

[[record]]
monomer_sequence = "QVQLVESGGGLVQAGGSLRLSCAASGSTFRYYAMGWYSQAPGKERELVASISSGGSTNYADSVKGRFTISRDNAKNTVYLQMNSLKPEDTAVYYCNADSWTVNRRYYYYRYEYWGQGTQVTVSS"
result = "low polyreactivity"

[[record]]
monomer_sequence = "QVQLVESGGGLVQAGGSLRLSCAASGRTFYRYSMGWYRQAPAKERELVAAISSSGGRTYYADSVKGRFTISRDNAKNTVYLQMNSLKPEDTAVYYCIKAYYYWYDWGQGTQVTVSS"
result = "high polyreactivity"

[[record]]
monomer_sequence = "QVQIVESGGGLFQAGGILRLSCAASGLTLFRDAMGWYRQAPGKERELVAAIDYGGGTYYADSVKGRFTISRDNAKTTVNLQMNRLKVEDTAVYYCAVEPEYKYYEGDFWGQGTQVTVSS"
result = "low polyreactivity"

[[record]]
monomer_sequence = "QVQLVESGGGLVQAGGSLRLSCAASGRIFAWYVMGWYRQAPRKEREFVAAIRWRSGSTHYADSVKGRFTISRDNAKNTVYLQMNSLKPEDTAVYYCAVDSRTYNGDYWGQGTQVTVSS"
result = "high polyreactivity"

